Recorded values, source patent US12195427B2.

Form field: Ki (one value per entry).
target-system: MASP-2 (CCP1-CCP2-SP) (Homo sapiens (Human), UniProt O00187)
Sequence (O00187 445-686): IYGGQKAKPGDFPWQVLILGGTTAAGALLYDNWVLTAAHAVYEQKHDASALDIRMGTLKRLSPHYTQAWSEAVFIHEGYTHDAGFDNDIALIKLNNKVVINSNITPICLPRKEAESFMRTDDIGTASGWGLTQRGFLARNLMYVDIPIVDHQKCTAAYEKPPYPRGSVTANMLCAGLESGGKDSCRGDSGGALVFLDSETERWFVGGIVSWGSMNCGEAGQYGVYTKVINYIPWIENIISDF
Where a name gives a salt, the structure may show the parent alone.

# count of solved cases: 5
{"compound": "COc1cc(C[C@@H]2CN[C@@H](C(=O)N[C@@H](C)C(=O)NCc3cc(Cl)ccc3-n3cnnn3)C2)cc(OC)c1 [compound 1419, Trifluoroacetate salt]", "Ki": "< 500 nM"}
{"compound": "C[C@H](NC(=O)[C@H](N)CCc1cc(Cl)cc(Cl)c1)C(=O)NCc1ccc(C(=N)N)cc1", "Ki": "< 500 nM"}
{"compound": "C[C@H](NC(=O)[C@H]1Cc2c([nH]c3ccccc23)CN1)C(=O)NCc1ccc(C(=N)N)cc1", "Ki": "< 500 nM"}
{"compound": "Cc1nc(N)ccc1CNC(=O)[C@H](C)NC(=O)[C@H]1C[C@@H](c2cccc(CN)c2)CN1", "Ki": "500 to 2500 nM"}
{"compound": "C[C@H](NC(=O)[C@H](N)CCc1ccccc1)C(=O)NCc1ccc(C(=N)N)cc1", "Ki": "< 500 nM"}

[Q] // query Ki value for entry `C[C@H](NC(=O)[C@H](N)CCc1cccc(Cl)c1)C(=O)NCc1ccc(C(=N)N)cc1`
[A] < 500 nM

[Q] // query Ki value for entry `C[C@H](NC(=O)[C@H]1C[C@H](c2ccccc2)CN1)C(=O)NCc1ccc2c(N)nccc2c1`
[A] < 500 nM

[Q] // query Ki value for entry `C[C@H](NC(=O)[C@H](N)CCc1ccccc1)C(=O)NCc1ccc(N)nc1`
[A] < 500 nM

[Q] // query Ki value for entry `Cc1cccc(CNC(=O)[C@H](C)NC(=O)[C@H]2C[C@H](Cc3ccccc3)CN2)c1-n1ncnn1`
[A] 500 to 2500 nM

[Q] // query Ki value for entry `C[C@H](NC(=O)[C@H](N)CCc1ccccc1)C(=O)NCc1cc(Cl)ccc1-n1cnnn1`
[A] 500 to 2500 nM

[Q] // query Ki value for entry `C[C@H](NC(=O)[C@H]1C[C@@H](c2ccccc2)CN1)C(=O)NCc1ccc2c(N)nccc2c1`
[A] < 500 nM

---

target-system: MASP-2 CCP2-SP (Homo sapiens (Human))
Sequence (O00187 445-686): as above
Sequence (O00187 364-432 partner): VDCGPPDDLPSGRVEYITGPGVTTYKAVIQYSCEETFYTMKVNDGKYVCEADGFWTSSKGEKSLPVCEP
method-summary: MASP-2 co-crystallization, X-ray crystallography and structure analysis (H-bonds, van der Waals contacts)
Parameters: unit not given beside the values
condition-label: Table A5-1 pharmacophore: distance between elements, S2/S1 region
Structures can show the parent of a compound that is named as a salt.
metric-name: d(C3,CA1)

{"compound": "Cc1nc(N)ccc1CNC(=O)[C@H](C)NC(=O)[C@H]1C[C@H](Cc2ccc3ccccc3c2)CN1", "target-system": "MASP-2 CCP2-SP (Homo sapiens (Human))", "metric-name": "d(C3,CA1)", "experimental-value": 2.88}
{"compound": "Cc1nc(N)ccc1CNC(=O)[C@H](C)NC(=O)[C@H]1C[C@@H](Cc2ccccc2)CCN1", "target-system": "MASP-2 CCP2-SP (Homo sapiens (Human))", "metric-name": "d(C3,CA1)", "experimental-value": 2.85}
{"compound": "Cc1nc(N)ccc1CNC(=O)[C@H](C)NC(=O)[C@H]1C[C@H](Cc2ccc(-c3ccccc3)cc2)CN1", "target-system": "MASP-2 CCP2-SP (Homo sapiens (Human))", "metric-name": "d(C3,CA1)", "experimental-value": 2.85}
{"compound": "Cc1nc(N)ccc1CNC(=O)[C@H](C)NC(=O)[C@H]1C[C@@H](c2cccc3ccccc23)CCN1.Cl.Cl [1297_2]", "target-system": "MASP-2 CCP2-SP (Homo sapiens (Human))", "metric-name": "d(C3,CA1)", "experimental-value": 2.88}
{"compound": "Cc1nc(N)ccc1CNC(=O)[C@H](C)NC(=O)[C@H]1C[C@@H](c2ccccc2)CCN1CCC(=O)O [compound 1411, Trifluoroacetate salt]", "target-system": "MASP-2 CCP2-SP (Homo sapiens (Human))", "metric-name": "d(C3,CA1)", "experimental-value": 2.87}
{"compound": "Cc1nc(N)ccc1CNC(=O)[C@H](C)NC(=O)[C@H]1C[C@H](Cc2cccc(Cl)c2)CN1.Cl.Cl [1328_2]", "target-system": "MASP-2 CCP2-SP (Homo sapiens (Human))", "metric-name": "d(C3,CA1)", "experimental-value": 2.85}

[Q] // query d(C3,CA1) value for entry Cc1nc(N)ccc1CNC(=O)C(C)NC(=O)[C@H]1C[C@H](c2cccc(-c3ccccc3)c2)CN1 (stereo in doubt)
[A] 2.85
